- Assay comment: Cell Viability - NIH 3T3 (AID 541);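 also: cells exposed to compound for 40 hours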
- Protocol conditions: NIH 3T3 cell viability, qHTS; at 92.2 µM (top of the series)
- Excerpt: NIH Chemical Genomics Center [NCGC] NIH Molecular Libraries Screening Centers Network [MLSCN] National Institutes of Environmental Health Sciences [NIEHS] National Toxicology Program [NTP] We have developed a 1536-well cell-based assay for quantitative high throughput screening (qHTS) against a number of cell lines to determine in vitro cytotoxicity of small molecules. […] 8. Detection; Luminescence; Viewlux plate reader […]
Results filed as inconclusive are left out.
Cut-off -10% on activity change, negative = cytotoxicity: below means Satisfied, at or above means Not satisfied.

| Compound | Group label |
| --- | --- |
| CCN(CC)c1ccccc1 | Not satisfied |
| C=CCOC(C)=O | Not satisfied |
| C=CC(=C)C | Not satisfied |
| Cc1ccc([N+](=O)[O-])cc1C | Not satisfied |
| CNC(=O)O/N=C/C(C)(C)SC | Not satisfied |
| C[N+](C)(C)Cc1ccccc1 | Satisfied |
| c1ccc(-c2ccccc2)cc1 | Not satisfied |
| CC(C)(C)OOC(C)(C)C | Satisfied |
| O=C(Cl)/C=C/C(=O)Cl | Not satisfied |
| Oc1ccc(Cl)cc1Cl | Not satisfied |
| c1ccc(N=Nc2ccccc2)cc1 | Not satisfied |
| S=C=Nc1cccc2ccccc12 | Not satisfied |
| CCOc1ccc(N)cc1 | Satisfied |
| C1CCC2CCCCC2C1 (centres undefined) | Satisfied |
| CCOCN(C(=O)CCl)c1c(C)cccc1CC | Satisfied |
| C=CCOC(=O)c1ccccc1N | Satisfied |
| CN=C=S | Not satisfied |
| ClCBr | Satisfied |
| O=S1OCC2C(CO1)C1(Cl)C(Cl)=C(Cl)C2(Cl)C1(Cl)Cl (centres undefined) | Satisfied |
| COP(=S)(OC)Oc1ccc([N+](=O)[O-])cc1 | Satisfied |
| Clc1cccc(C(Cl)(Cl)Cl)n1 | Not satisfied |
| C=CC1CC=CCC1 (centres undefined) | Not satisfied |
| CCSC(=O)Cl | Not satisfied |
| c1nc[nH]n1 | Not satisfied |
| CCNc1nc(Cl)nc(NC(C)C)n1 | Satisfied |
| CCOP(=S)(OCC)Oc1ccc([N+](=O)[O-])cc1 | Satisfied |
| OCC(Br)CBr (centres undefined) | Satisfied |
| ClC1=C(Cl)C2(Cl)C3C4CC(C5OC45)C3C1(Cl)C2(Cl)Cl (centres undefined) | Satisfied |
| C=CC(C)=O | Not satisfied |
| C=C(C)C#N | Satisfied |
| CC(C)(c1ccccc1)c1ccc(O)cc1 | Satisfied |
| c1ccc(OP(Oc2ccccc2)Oc2ccccc2)cc1 | Not satisfied |
| Brc1ccccc1 | Not satisfied |
| C[C@]12CC[C@H]3[C@@H](CCC4=CC(=O)CC[C@@]43C)[C@@H]1CC[C@@H]2O | Satisfied |
